Listed next: entries and their corresponding protein stability index.
B1: SPOPL (parent)
chain: YTGRAPNLDKMADNLLAAADKYAL

variants of: B1; test: protein stability index of a GFP-peptide fusion (GPS, HEK-293T) (PSI 1-6); higher = more stable; conditions: c terminus: a fixed tail appended;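 further: lentivirally expressed fusions sorted by FACS into six bins by GFP to DsRed ratio, PSI derived from sequencing read proportions per bin multiplied by bin number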
Answer as a number with no unit attached.

Guide cases for protein stability index, answers given:
A5C	1.87
P6S	2.16
K10E	2.23
L8N	2.94
G3D	3.99
M11K	2.15
A19M	2.22
A23S	1.97
T2S	2.75
T2M	2.24

Param item = T2I ; retrieve measured protein stability index.
1.98

Param item = K10G ; retrieve measured protein stability index.
2.25

Param item = N7E ; retrieve measured protein stability index.
1.99

Param item = L24D ; retrieve measured protein stability index.
3.62

Param item = N14Y ; retrieve measured protein stability index.
1.86
